Experiment: Solubility of the compound in simulated gastric fluid compliant with Japanese pharmacopeia
Type: ADME
Reported endpoint: solubility (µg/mL)

INSERT INTO assay_data (smiles_repr, unit_descriptor, value_reported) VALUES
  ('O=C(Nc1ccc(OC(F)(F)F)cc1)N1CCOC2(CCN(C(=O)C3(c4ccccc4)CC3)CC2)C1', 'µg/mL', 37),
  ('O=C(Nc1ccc(OC(F)(F)F)cc1)N1CCOC2(CCN(C(=O)c3ccccc3F)CC2)C1', 'µg/mL', 71),
  ('O=C(Nc1ccc(OC(F)(F)F)cc1)N1CCOC2(CCN(C(=O)c3cc(Cl)ccn3)CC2)C1', 'µg/mL', 90),
  ('O=C(Nc1ccc(C(F)(F)F)cc1)N1CCOC2(CCN(C(=O)c3ccccc3Cl)CC2)C1', 'µg/mL', 10),
  ('O=C(Nc1ccc(C(F)(F)F)cc1)N1CCOC2(CCN(C(=O)c3c(F)cccc3F)CC2)C1', 'µg/mL', 43),
  ('O=C(Nc1ccc(C(F)(F)F)cc1)N1CCOC2(CCN(C(=O)c3ccccc3)CC2)C1', 'µg/mL', 62),
  ('O=C(CC1CC1)N1CCC2(CC1)CN(C(=O)Nc1ccc(C(F)(F)F)cc1)CCO2', 'µg/mL', 79),
  ('O=C(Nc1ccc(OC(F)(F)F)cc1)N1CCOC2(CCN(C(=O)c3c(F)cccc3F)CC2)C1', 'µg/mL', 44),
  ('CC(=O)Nc1ccccc1C(=O)N1CCC2(CC1)CN(C(=O)Nc1ccc(C(F)(F)F)cc1)CCO2', 'µg/mL', 92);

From: ChEMBL document CHEMBL3102795
